System: G. duodenalis BRIS/91/HEPU/1279
experiment: Primary Giardia screen at 10 µM (live-cell imaging, automated counting)
Format: cell-based, Giardia duodenalis
reported conditions: 48 h, first singlicate assay
Sorting guide: entries reporting % Inhibition n=1 48h beneath 7% go in the Satisfied pile, the rest go in the Not satisfied pile.

Use these answered entries as a reference point.
[[record]]
compound = "CCc1cc(C2CCCN2C(=O)c2cnn3c(C(F)(F)F)cc(-c4cccs4)nc23)on1 (stereo not drawn) [SN00793821]"
label_class = "Satisfied"

[[record]]
compound = "CCOc1ccccc1OC1CCN(c2ncnc3nc[nH]c23)CC1 [SN00780570]"
label_class = "Not satisfied"

[[record]]
compound = "COCCNC(=O)c1nc[nH]c1C(=O)NC(C)C [SN00786292]"
label_class = "Not satisfied"


Inquiry: Decide: % Inhibition n=1 48h of O=C(COc1ccccc1)N1CCCN(c2cccnn2)CC1 [SN00772032] strictly below 7%?
Reply text: Satisfied

Inquiry: Decide: % Inhibition n=1 48h of NC(=O)c1cnc(N2CCC3(CC2)CC3c2nc(-c3cccc(Cl)c3)no2)c(Cl)c1 (stereo not drawn) [SN00773335] strictly below 7%?
Reply text: Satisfied

----------
System: G. duodenalis BRIS/91/HEPU/1279
experiment: Primary Giardia screen at 10 µM (live-cell imaging, automated counting)
Assay type: cell-based, Giardia duodenalis
reported conditions: 48 h, first singlicate assay
Sorting guide: entries reporting % Inhibition n=1 48h beneath 8% go in the Yes pile, the rest go in the No pile.

[[record]]
molecule = "Cc1ccc(NC(=O)Nc2ccc3c(c2)CCN3S(=O)(=O)c2ccccc2)cc1"
target_under_test = "G. duodenalis BRIS/91/HEPU/1279"
label_class = "No"


Would you kindly look at the next entry?
Inquiry: Decide: % Inhibition n=1 48h of COc1ccc(CN2CCN(C(=O)c3c(C)oc4c3C3=NCCN3C=N4)CC2)c(OC)c1OC strictly below 8%?
Reply text: Yes

----------
Test system: G. duodenalis BRIS/91/HEPU/1279
experiment: Primary Giardia screen at 10 µM (live-cell imaging, automated counting)
Type: cell-based, Giardia duodenalis
reported conditions: 48 h, first singlicate assay
Method: Each compound was assessed in singlicate, at a final concentration of 10 μM (0.4 μL of a 5 mM stock; diluted to a final volume of 200 μL in culture medium; 0.2% DMSO). […] Plates were incubated in sealed chambers filled with 3% O2, 5% CO2 in N2 and growth was assessed at 24 and 48 h using live cell imaging and automated counting as previously described. […] The reliability of these assays was assessed by calculating Z’ factors for each plate as previously described.
property label: % Inhibition n=1 48h (%)
The answer is to be given in %; state only the numeric part.

// worked examples, % Inhibition n=1 48h included
[[record]]
compound = "O=C(C1CC(=O)N(c2cccc(-c3noc(C4CCC4)n3)c2)C1)N1CCN(c2ccccc2F)CC1 (centres unmarked)"
property_label = "% Inhibition n=1 48h"
readout_number = 5.7

[[record]]
compound = "CC(=O)c1cccc(NC(=O)CN2CCC(c3nc(-c4ccccc4)no3)CC2)c1"
property_label = "% Inhibition n=1 48h"
readout_number = 0.0

[[record]]
compound = "Cc1cc(C)n2nc(C(=O)N3CCC(CC(N)=O)CC3)nc2n1"
property_label = "% Inhibition n=1 48h"
readout_number = 0.0

[[record]]
compound = "COCCN1C(=O)c2oc3ccccc3c2OCC1(C)C(=O)NCc1ccccc1OC (centres unmarked)"
property_label = "% Inhibition n=1 48h"
readout_number = 21.5


% Inhibition n=1 48h reported for this compound O=S(=O)(c1cccc2cccnc12)N1CCc2nc(-c3ccc(F)cc3)ncc2C1 : 3.1

----------
Test system: G. duodenalis BRIS/91/HEPU/1279
experiment: Primary Giardia screen at 10 µM (live-cell imaging, automated counting)
Type: cell-based, Giardia duodenalis
reported conditions: 48 h, first singlicate assay
# reported % Inhibition n=1 48h; entries follow
The answer is to be given in %; state only the numeric part.

// worked examples, % Inhibition n=1 48h included
[[record]]
molecule = "O=C(c1ccc(F)cc1)N1CCCN(Cc2noc(-c3ccccc3)n2)CC1 [SN00794182]"
target_under_test = "G. duodenalis BRIS/91/HEPU/1279"
property_label = "% Inhibition n=1 48h"
readout_number = 33.4

[[record]]
molecule = "CCOc1cccc(CC(=O)Nc2ccc3c(c2)C(=O)N(C)C2=NCCN23)c1OCC [SN00789358]"
target_under_test = "G. duodenalis BRIS/91/HEPU/1279"
property_label = "% Inhibition n=1 48h"
readout_number = 35.6

[[record]]
molecule = "COc1ccc(-c2nnc(-c3cccnc3N3CCN(C(=O)c4cccc(OC)c4)CC3)o2)cc1 [SN00797707]"
target_under_test = "G. duodenalis BRIS/91/HEPU/1279"
property_label = "% Inhibition n=1 48h"
readout_number = 2.3

[[record]]
molecule = "Cc1ccc([N+](=O)[O-])cc1NC(=O)N1CCC(n2cncn2)CC1 [SN00781334]"
target_under_test = "G. duodenalis BRIS/91/HEPU/1279"
property_label = "% Inhibition n=1 48h"
readout_number = 0.0

[[record]]
molecule = "CNc1cccnc1OC1CCN(C(=O)CCc2nc3ccccc3[nH]2)C1 (stereo not drawn) [SN00799967]"
target_under_test = "G. duodenalis BRIS/91/HEPU/1279"
property_label = "% Inhibition n=1 48h"
readout_number = 11.3

[[record]]
molecule = "Cc1ccc(-c2cc(C(=O)NCc3cn(C)nc3C)c3ccccc3n2)cc1C [SN00783737]"
target_under_test = "G. duodenalis BRIS/91/HEPU/1279"
property_label = "% Inhibition n=1 48h"
readout_number = 0.0

[[record]]
molecule = "COCCN1CCC(N2CCCN(C(=O)NCCc3ccccc3)CC2)C1=O (stereo not drawn) [SN00802413]"
target_under_test = "G. duodenalis BRIS/91/HEPU/1279"
property_label = "% Inhibition n=1 48h"
readout_number = 1.7

[[record]]
molecule = "COc1ccc(NC(=O)c2cnc(N3CCN(CC(=O)N4CCCC4)CC3)nc2N)cc1 [SN00798764]"
target_under_test = "G. duodenalis BRIS/91/HEPU/1279"
property_label = "% Inhibition n=1 48h"
readout_number = 0.0


Moving on to another molecule below.
% Inhibition n=1 48h reported for this molecule O=C(c1cn2ccnc(-c3ccccc3)c2n1)N1CCCCC1 [SN00801929] : 30.6

----------
System: Acinetobacter baumannii (ATCC 19606)
experiment: Anti-bacterial activity assay
Type: cell-based
reported conditions: ATCC19606, 50 µM
property label: inhibition at 50 µM (%)
The answer is to be given in %; state only the numeric part.

// worked examples, inhibition at 50 µM included
[[record]]
molecule = "O=[N+]([O-])c1ccc(N2CCC(c3ncc[nH]3)CC2)c2ccncc12"
property_label = "inhibition at 50 µM"
unit_of_measurement = "%"
readout_number = 4.73

[[record]]
molecule = "O=C(NC1CCCCC1)c1nc(Nc2ccccc2)c2ccccc2n1"
property_label = "inhibition at 50 µM"
unit_of_measurement = "%"
readout_number = 10.8

[[record]]
molecule = "Cc1cccc(CNS(=O)(=O)c2cc(-c3csc(C)n3)sc2C)c1"
property_label = "inhibition at 50 µM"
unit_of_measurement = "%"
readout_number = 42.5

[[record]]
molecule = "Cc1ncc([N+](=O)[O-])n1Cc1csc(Cc2ccccc2)n1"
property_label = "inhibition at 50 µM"
unit_of_measurement = "%"
readout_number = 10.5

[[record]]
molecule = "COc1ccc(C)cc1N1C(=O)C(c2ccccc2)C(c2nc3ccccc3s2)=C1N (stereo not drawn)"
property_label = "inhibition at 50 µM"
unit_of_measurement = "%"
readout_number = 13.3

[[record]]
molecule = "CC(C)c1ccc(Nc2ncccc2S(=O)(=O)N2CCCC2)cc1"
property_label = "inhibition at 50 µM"
unit_of_measurement = "%"
readout_number = 4.74


inhibition at 50 µM reported for this molecule Cc1cc(-c2cc(C(=O)Nc3ccc(N4CCN(C)CC4)nc3)c3cnn(C(C)C)c3n2)c(C)o1 : 19.6

inhibition at 50 µM reported for this molecule CCc1nnc2c3ccccc3nc(N3CCN(c4cccc(Cl)c4)CC3)n12 : 1.85

inhibition at 50 µM reported for this molecule Cc1nn(-c2ccccc2)c2sc(C(=O)N3CCCCC3)cc12 : 15.1

inhibition at 50 µM reported for this molecule COc1ccc(-c2csc(C3=C(N)N(CC(C)(C)CN(C)C)CC3=O)n2)cc1OC : 9.53

inhibition at 50 µM reported for this molecule CCOc1ccc(CCNC(=O)c2ccc3c(c2)nc2n3CCOC2)cc1OCC : 2.57

inhibition at 50 µM reported for this molecule COc1cc(NS(=O)(=O)c2ccc(C)cc2)cc2sc(NC(=O)c3ccccc3)nc12 : 3.03

inhibition at 50 µM reported for this molecule COc1ccccc1N1CCN(C(=O)c2cc3c(C)nn(-c4ccc(C)cc4)c3s2)CC1 : 9.06

inhibition at 50 µM reported for this molecule Cn1nccc1-c1cccc(-c2noc(-c3cccc(F)c3)n2)c1 : 1.7

inhibition at 50 µM reported for this molecule COc1c(C)cnc(Cn2cnc([N+](=O)[O-])c2)c1C : 9.49
